Tested on: SF-268
Assay: NCI tumour cell line growth inhibition, 48 h
The source made the active and inactive calls. No stated cut-off is given here; in the data, active = GI50 up to about 1.1 µM and inactive = higher.
Outcome codes: active, inactive

>  <molecule>
S=C1NN=C2C(=C3CCCC4C5CCCCC5N2C34)N1 (configuration not stated)

>  <assigned category>
inactive

$$$$
>  <molecule>
N=c1[nH]cnc2c1nnn2C1C=CC(COS(N)(=O)=O)C1 (configuration not stated)

>  <assigned category>
inactive

$$$$
>  <molecule>
COc1ccc2oc(C(=O)N3CC(CCl)c4ccc([N+](=O)[O-])cc43)cc2c1 (configuration not stated)

>  <assigned category>
inactive

$$$$
>  <molecule>
O=C1C2C3C=C4c5ccccc5N(c5ccccc5)C4(C2C(=O)N1c1ccc([N+](=O)[O-])cc1)[C@H]1C(=O)N(c2ccc([N+](=O)[O-])cc2)C(=O)[C@@H]31 (some centres not stated)

>  <assigned category>
inactive

$$$$
>  <molecule>
Cc1cc(C)nc(NS(=O)(=O)c2ccc(Nc3c4ccccc4nc4ccc(C(=O)Nc5ccc(S(=O)(=O)N=C(N)N)cc5)cc34)cc2)n1

>  <assigned category>
inactive

$$$$
>  <molecule>
N#CSC/C(Cl)=C/Cl.N#CSC/C(Cl)=C\Cl

>  <assigned category>
inactive

$$$$
>  <molecule>
CCCCNC(=O)C1C(=O)N(CCCC)C(=O)/C1=N\N (configuration not stated)

>  <assigned category>
inactive

$$$$
>  <molecule>
CCOC(=O)C1C(=O)CC(C)(O)C(C(=O)OCC)C1c1ccc(O)c(OC)c1 (configuration not stated)

>  <assigned category>
inactive

$$$$
>  <molecule>
NC(=O)c1cc(C2OC(CO)C(O)C2O)nn1-c1ccc([N+](=O)[O-])cc1 (configuration not stated)

>  <assigned category>
inactive

$$$$
>  <molecule>
Cc1[nH]c2ccccc2c1C1Cc2ccccc2N1C(=O)/C=C/C(=O)O (configuration not stated)

>  <assigned category>
inactive

$$$$
>  <molecule>
COc1ccc(NC(=O)C(=O)C2CNC(=O)NC2=O)c(OC)c1 (configuration not stated)

>  <assigned category>
inactive

$$$$
>  <molecule>
OC1c2ccccc2C2C(O)c3ccccc3C12 (configuration not stated)

>  <assigned category>
inactive

$$$$
>  <molecule>
CSC1SCC2C(=O)N(C)C3(CC3C)C(=O)OCC(NC(=O)c3nc4ccccc4cc3O)C(=O)NC(C)C(=O)N(C)C1C(=O)N(C)C1(CC1C)C(=O)OCC(NC(=O)c1nc3ccccc3cc1O)C(=O)NC(C)C(=O)N2C (configuration not stated)

>  <assigned category>
active

$$$$
>  <molecule>
CN(C)c1ccc(/C=C2\N=C(N/N=C/c3ccccc3)NC2=O)cc1

>  <assigned category>
inactive

$$$$
>  <molecule>
CCN1C(=O)C/C(=C\C(C)=O)Nc2ccccc21

>  <assigned category>
inactive

$$$$
>  <molecule>
O=C1NC2=NOC(=O)NC2=NO1

>  <assigned category>
inactive

$$$$
>  <molecule>
COC(=O)C(CNC(=O)/C=C/c1ccc(OC)c(OC)c1)NC(=O)/C=C/c1ccc(OC)c(OC)c1 (configuration not stated)

>  <assigned category>
inactive

$$$$
>  <molecule>
NC(=S)N/N=C/C1NCCC2CCCCC21 (configuration not stated)

>  <assigned category>
active

$$$$
>  <molecule>
CCOc1ccc(NC2=NC(=O)C(CC(=O)Nc3ccc(Cl)cc3Cl)S2)cc1 (configuration not stated)

>  <assigned category>
inactive

$$$$
>  <molecule>
CCOC(=O)C1(C#N)CC1

>  <assigned category>
inactive

$$$$
>  <molecule>
Cc1cn([C@@H]2C[C@H](CO)[C@@H]2O)c(=O)[nH]c1=O

>  <assigned category>
inactive

$$$$
>  <molecule>
COCCOC(=O)C(C)=[N+]=[N-]

>  <assigned category>
inactive

$$$$
>  <molecule>
CC(=O)C1=CCC2c3[nH]c4ccccc4c3CCN2C1 (configuration not stated)

>  <assigned category>
inactive

$$$$
>  <molecule>
Oc1ccc(Cl)cc1CN1CCN(Cc2cc(Cl)ccc2O)C1

>  <assigned category>
active

$$$$
>  <molecule>
COc1cc(C2S/C(=C/c3ccccc3)C(=O)N2c2cc(Cl)ccc2Cl)cc(OC)c1OC (configuration not stated)

>  <assigned category>
inactive

$$$$
>  <molecule>
COc1ccc(C[C@@H]2OC3(C=CC(=O)C=C3)O[C@H]2Cc2ccc(OC)cc2)cc1

>  <assigned category>
active

$$$$
>  <molecule>
O=C1c2c(F)c(F)c(F)c(F)c2SC2=Nc3cccc4cccc(c34)N12

>  <assigned category>
inactive

$$$$
